- Tested on: SK-MEL-28 melanoma
- ASSAY INFO: NCI tumour cell line growth inhibition, 48 h; in the data active means GI50 below about 0.43 µM; inactive means the rest
Returns: one label drawn from label 1 for active, label 0 for inactive

Request: Any idea what this test logged for Nc1nc(-c2cccc3ccccc23)cc2ccccc12 ?
Response: label 0

Request: Any idea what this test logged for COc1cccc2c1C(CO)N1C(C#N)C3CC(C(=O)O)C(C1C2)N3C (stereo not drawn) ?
Response: label 1

Request: Any idea what this test logged for CC(C)=CC(=O)OCC(=O)O[C@@H]1C[C@]2(C(C)C)O[C@@]1(C)[C@@H]1CC[C@@H](C)[C@H]1[C@@H]2OC(=O)/C=C/c1ccccc1 ?
Response: label 0

Request: Any idea what this test logged for CCOC(=O)c1ccc2c(c1)c1c(C)c3ccncc3c(C)c1n2C ?
Response: label 0

Request: Any idea what this test logged for CCN(CC)c1ccc(N=O)cc1 ?
Response: label 0

Request: Any idea what this test logged for COC(=O)c1c2c(c[n+]([O-])c1C)C(=O)C=C(NCc1ccccc1)C2=O ?
Response: label 1

Request: Any idea what this test logged for COc1cc2c(cc1O)N=C[C@@H]1C[C@@H](F)CN1C2=O ?
Response: label 0

Request: Any idea what this test logged for CN(C)c1ccc2nc3ccc(=N)cc-3sc2c1 ?
Response: label 0

###

- Test system: OVCAR-4 ovarian
- ASSAY INFO: NCI tumour cell line growth inhibition, 48 h
READOUT TYPE: TGI

Example results:
{"MOLECULE": "COc1cccc2c1C(CO)N1C(C#N)C3CC(C(=O)O)C(C1C2)N3C (stereo not given)", "TGI": "27 µM"}
{"MOLECULE": "CC(C)(C)c1ccc(O)c(C[N+](C)(C)C)c1", "TGI": "> 100 µM"}

Give measured TGI for every item shown.
1. COc1cc2c(cc1O)N=C[C@@H]1C[C@@H](F)CN1C2=O
2. C[N+]1(C)C/C(=C/c2ccc(F)cc2)C(=O)/C(=C\c2ccc(F)cc2)C1

Response:
1: 14.5 µM; 2: > 100 µM

Give measured TGI for every item shown.
1. CC(=O)OC1C[C@@H](C)C2(C[C@H](O)c3ccoc3)C(=O)OC[C@]13C2CCC(O)C31CO1 (stereo not given in full)
2. C[C@H](CCC(=O)NN)[C@H]1CC[C@H]2[C@@H]3CC[C@@H]4C[C@H](O)CC[C@]4(C)[C@H]3CC[C@]12C
3. COc1cc(/C=N/NC(=O)c2ccc(NC(C)=O)cc2OC)ccc1O

Response:
> 100 µM
> 100 µM
> 100 µM

###

Give TGI for every item shown.
- Tested on: SF-539 CNS
- ASSAY INFO: NCI tumour cell line growth inhibition, 48 h
Give bare numbers, in µM.

Give measured TGI for every item shown.
1. O=C1C=CC(=O)c2c(O)c(CO)c(CO)c(O)c21
2. C=C(C)[C@@H]1CC[C@]2(CNCCO)CC[C@]3(C)[C@H](CC[C@@H]4[C@@]5(C)CCC(N)[C@@](C)(CO)[C@@H]5CC[C@]43C)[C@@H]12 (stereo not given in full)
3. O=C1/C(=C/c2cccc(O)c2)COc2ccccc21

Response:
1: 1.71; 2: 3.27; 3: 25.8

###

- System: HCT-15 colon
- ASSAY INFO: NCI tumour cell line growth inhibition, 48 h; in the data active means GI50 below about 0.43 µM; inactive means the rest
Returns: one label drawn from yes = active, no = inactive

Here's what some known entries look like.
{"COMPOUND": "COc1cc(C(=O)/C=C/c2c(-c3cccs3)nc3sc(C)cn23)cc(OC)c1OC", "CLASS ASSIGNMENT": "no"}
{"COMPOUND": "CCOC(=O)c1ccc2c(c1)c1c(C)c3ccncc3c(C)c1n2C", "CLASS ASSIGNMENT": "yes"}
{"COMPOUND": "CCOC(=O)c1cc(C(=O)c2ccc(Cl)cc2)n2ccc(-c3cc[n+](CC(=O)c4ccc(OC)cc4)cc3)cc12", "CLASS ASSIGNMENT": "no"}
{"COMPOUND": "CCN(CC)c1ccc(N=O)cc1", "CLASS ASSIGNMENT": "no"}
{"COMPOUND": "c1cc(N2CCCC2)c2nc(-c3[nH]ncc3Nc3ncnc4[nH]ccc34)[nH]c2c1", "CLASS ASSIGNMENT": "yes"}

Request: Any idea what this test logged for CN(C)c1ccc2nc3ccc(=N)cc-3sc2c1 ?
Response: no
